tested on: Porcine atria myofibrils (atrial myosin ATPase); assay: Myofibril ATPase assay, porcine atria myofibrils; assay type: biochemical; conditions: Y75 value (no ‡ mark); porcine atria myofibrils
Answer each item with its documented Atrial EC25.
Answers are plain numbers, in µM.

Below are worked cases with known answers.
{"compound": "Cc1c(C2(C(=O)N[C@H]3CCc4cc(C#N)cnc43)CC2)c(=O)[nH]c2ccc(F)c(F)c12 (single isomer, unassigned)", "readout-number": 4.71}
{"compound": "COc1ccc2[nH]c(=O)c(C(C)C(=O)N[C@@H](C)c3ccc(F)cc3F)cc2c1Cl (stereo partly drawn)", "readout-number": 100.00}

Switching to the query record.
Query: Write down Atrial EC25 measured for item C[C@H](NC(=O)Cc1cc2cc(F)c(F)cc2[nH]c1=O)c1ccc(C#N)cn1
Response: 27.67
